Data credit: a melting point compilation (Tetko et al.; mined from patent text by program, amines drawn as free bases though some values may be those of a salt)

Measured melting point by item

Name the recorded melting point for Cc1nc(-c2cc([N+](=O)[O-])ccc2F)cs1 . 160 to 162 °C

Next:
Reported melting point, compound O=[N+]([O-])CCc1cccc2ccccc12 : ____ 45 to 46 °C

Which melting point is listed for COC(=O)Cc1cc(C)ccc1OCc1ccc(OCc2nc(-c3ccccc3)oc2C)cc1 ? 80 to 81 °C

Give the measured melting point of O=C(O)Cc1ccccc1SCc1ccc(Cl)cc1 . 149 to 151 °C

Entry under review: COc1nc(C(F)(F)F)cc(=O)n1-c1ccc(Cl)c(OC(C)C)c1 . Reported melting point? 55 to 58 °C

Can you share its melting point? I mean this compound: COC(=O)Cc1ccccc1CC(=O)NCCc1ccc(OC)c(OC)c1 88 to 91 °C

Give the measured melting point of CC(=O)Cc1ccc(-c2noc3cc(Cl)ccc23)cc1 . 109 to 110 °C
